system: Solute carrier family 15 member 1 (Homo sapiens, UniProt P46059)
Sequence (P46059 whole entry): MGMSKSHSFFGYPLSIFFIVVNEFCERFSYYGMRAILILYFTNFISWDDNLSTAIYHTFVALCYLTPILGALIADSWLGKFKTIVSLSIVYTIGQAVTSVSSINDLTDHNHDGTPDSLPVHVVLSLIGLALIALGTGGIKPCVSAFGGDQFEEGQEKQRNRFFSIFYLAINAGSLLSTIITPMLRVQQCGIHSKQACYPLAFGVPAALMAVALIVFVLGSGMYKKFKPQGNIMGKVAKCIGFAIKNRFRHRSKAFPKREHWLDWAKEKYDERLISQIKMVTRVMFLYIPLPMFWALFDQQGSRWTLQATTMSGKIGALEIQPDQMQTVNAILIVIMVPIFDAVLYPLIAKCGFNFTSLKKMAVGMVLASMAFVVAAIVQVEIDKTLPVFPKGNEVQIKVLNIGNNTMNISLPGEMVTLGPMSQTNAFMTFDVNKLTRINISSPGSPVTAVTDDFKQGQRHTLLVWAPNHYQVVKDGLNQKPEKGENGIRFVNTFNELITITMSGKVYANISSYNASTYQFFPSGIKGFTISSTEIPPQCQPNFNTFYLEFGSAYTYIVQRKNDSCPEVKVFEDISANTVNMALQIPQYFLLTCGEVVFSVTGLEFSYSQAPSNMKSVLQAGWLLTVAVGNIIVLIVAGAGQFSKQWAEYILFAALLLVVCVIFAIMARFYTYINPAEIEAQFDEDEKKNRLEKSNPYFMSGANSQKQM
assay protocol: TP_TRANSPORTER: inhibition of Gly-Sar uptake in Xenopus laevis oocytes
test readout: Ki (mM)
Please state the figure in mM; there is no need to write the unit.

// `CC(C)[C@H](N)C(=O)OCCOCn1cnc2c(=O)[nH]c(N)nc21` : Ki value = 4.08
